Target: Epidermal growth factor receptor (Homo sapiens, UniProt P00533)
Assay: DRUGMATRIX: Protein Tyrosine Kinase, EGF Receptor enzyme inhibition (substrate: Poly(Glu:Tyr))
Type: cell-based, Insect cells
Conditions: insect cells; Not Active = under 50% inhibition at 10 µM; read-out: IC50
READOUT_NAME: pIC50
// scale note: pIC50 = -log10(conc_M); give the bare number

Req: Could you please provide reported pIC50 for CHROMIC CHLORIDE ? Thanks!
Resp: 5.53

----------
Experiment: DRUGMATRIX: beta-Lactamase enzyme inhibition (substrate: Nitrocefin)
Parameters: species or system Bacillus cereus
Conditions: Not Active = under 50% inhibition at 10 µM
READOUT_NAME: IC50

A selection of reference data follows.
>>> measured("CC(C)(C)NC[C@H](O)COc1cccc2c1CCCC2=O")
"Not Active"
>>> measured("CS(=O)(=O)c1ccc(C2=C(c3ccccc3)C(=O)OC2)cc1")
"Not Active"
>>> measured("C[C@H]1C[C@H]2[C@@H]3CCC4=CC(=O)C=C[C@]4(C)[C@@]3(F)[C@@H](O)C[C@]2(C)[C@@]1(O)C(=O)CO")
"Not Active"
>>> measured("COc1ccccc1OCCNCC(O)COc1cccc2[nH]c3ccccc3c12 (stereo not drawn)")
"Not Active"
>>> measured("Cc1ccc(Cl)c(Nc2ccccc2C(=O)O)c1Cl")
"Not Active"
>>> measured("OC[C@@H](O)[C@@H](O)[C@H](O)[C@H](O)CO")
"Not Active"
>>> measured("C#C[C@]1(O)CC[C@H]2[C@@H]3CCC4=CC(=O)CC[C@@H]4[C@H]3CC[C@@]21C")
"Not Active"
>>> measured("CCO")
"Not Active"

Req: Could you please provide reported IC50 for `Nc1nc(N)c2nc(-c3ccccc3)c(N)nc2n1` ? Thanks!
Resp: Not Active

Req: Could you please provide reported IC50 for `ClC1=C(Cl)[C@]2(Cl)[C@@H]3[C@@H]4C[C@@H]([C@H]5O[C@@H]45)[C@@H]3[C@@]1(Cl)C2(Cl)Cl` ? Thanks!
Resp: Not Active

----------
Assay: DRUGMATRIX: Phosphodiesterase PDE4 enzyme inhibition (substrate: [3H]cAMP + cAMP)
Settings: u-937; Not Active = under 50% inhibition at 10 µM
READOUT_NAME: IC50

>>> measured("O=[As][O-].[Na+] [SODIUM ARSENITE]")
"Not Active"
>>> measured("OC[C@H]1O[C@@H]2O[C@H]3[C@H](O)[C@@H](O)[C@@H](O[C@H]4[C@H](O)[C@@H](O)[C@@H](O[C@H]5[C@H](O)[C@@H](O)[C@@H](O[C@H]6[C@H](O)[C@@H](O)[C@@H](O[C@H]7[C@H](O)[C@@H](O)[C@@H](O[C@H]1[C@H](O)[C@H]2O)O[C@@H]7CO)O[C@@H]6CO)O[C@@H]5CO)O[C@@H]4CO)O[C@@H]3CO")
"Not Active"
>>> measured("CC[C@H](C)[C@@H](CO[C@@H](Cc1ccccc1)C(=O)N[C@@H](CCS(C)(=O)=O)C(=O)OC(C)C)NC[C@@H](N)CS")
"Not Active"

----------
Target: 5-hydroxytryptamine receptor 1B (Rattus norvegicus, UniProt P28564); note: in other assays of this panel Not Active means under 50% inhibition at 10 µM
Sequence (P28564 whole entry): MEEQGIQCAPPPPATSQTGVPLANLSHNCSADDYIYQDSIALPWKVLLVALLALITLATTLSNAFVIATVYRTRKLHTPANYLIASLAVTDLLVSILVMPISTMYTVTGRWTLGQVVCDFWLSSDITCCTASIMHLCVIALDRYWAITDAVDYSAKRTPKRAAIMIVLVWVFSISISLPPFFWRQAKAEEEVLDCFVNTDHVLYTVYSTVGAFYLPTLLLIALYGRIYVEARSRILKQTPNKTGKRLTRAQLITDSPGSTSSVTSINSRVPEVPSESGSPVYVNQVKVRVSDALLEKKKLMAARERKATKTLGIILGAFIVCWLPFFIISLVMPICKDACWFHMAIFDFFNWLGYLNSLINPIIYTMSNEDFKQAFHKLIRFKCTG
Type: cell membranes, Wistar, Cerebral cortex, Membrane
READOUT_NAME: IC50

>>> measured("CC(Cl)(Cl)Cl [TRICHLOROETHANE]")
"Not Active"
>>> measured("CO[C@@H]1[C@@H](OC)[C@H](C)[C@@](O)(CC(=O)O)O[C@H]1[C@H](C)[C@H]1O[C@@]2(CC[C@@](C)([C@H]3CC[C@@](C)([C@@H]4O[C@@H]([C@H]5O[C@](C)(O)[C@H](C)C[C@@H]5C)C[C@@H]4O[C@@H]4C[C@H](OC)[C@@H](OC)[C@H](C)O4)O3)O2)C[C@H](O)[C@H]1C.N [MADURAMICIN]")
"Not Active"
>>> measured("CC(=O)O[C@]1(C(C)=O)CC[C@H]2[C@@H]3C[C@H](C)C4=CC(=O)CC[C@]4(C)[C@H]3CC[C@@]21C [MEDROXYPROGESTERONE ACETATE]")
"Not Active"

----------
Target: Mu-type opioid receptor (Homo sapiens)
Sequence (P35372 whole entry): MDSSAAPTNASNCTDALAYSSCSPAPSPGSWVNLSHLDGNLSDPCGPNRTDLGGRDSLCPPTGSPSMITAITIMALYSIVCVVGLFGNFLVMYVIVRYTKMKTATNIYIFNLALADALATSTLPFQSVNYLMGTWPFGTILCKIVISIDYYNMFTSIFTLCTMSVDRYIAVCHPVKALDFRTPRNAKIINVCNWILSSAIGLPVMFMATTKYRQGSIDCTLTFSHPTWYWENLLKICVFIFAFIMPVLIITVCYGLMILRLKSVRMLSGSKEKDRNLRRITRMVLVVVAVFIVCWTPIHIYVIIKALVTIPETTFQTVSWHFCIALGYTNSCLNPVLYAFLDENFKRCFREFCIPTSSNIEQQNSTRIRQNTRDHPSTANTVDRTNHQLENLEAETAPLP
Assay: DRUGMATRIX: Opiate mu (OP3, MOP) radioligand binding (ligand: [3H] Diprenorphine)
Format: cell membranes, CHO-K1, Membrane
Conditions: cho-k1; Not Active = under 50% inhibition at 10 µM
READOUT_NAME: IC50

A selection of reference data follows.
>>> measured("COc1cc(/C=C/C(=O)O)ccc1O [FERULATE]")
"Not Active"
>>> measured("CCO")
"Not Active"
>>> measured("C[C@]12CC[C@@H](O)C[C@@H]1CC[C@@H]1[C@@H]2CC[C@]2(C)C(=O)CC[C@@H]12")
"Not Active"
>>> measured("CCOc1cc(N)c(Cl)cc1C(=O)NCC1CN(Cc2ccc(F)cc2)CCO1 (stereo not given) [MOSAPRIDE]")
"Not Active"
>>> measured("CC(N)C12CC3CC(CC(C3)C1)C2 (stereo not given)")
"Not Active"
>>> measured("c1ccc2c(c1)Nc1ccccc1S2")
"Not Active"
>>> measured("COC(=O)Nc1nc2ccc(Sc3ccccc3)cc2[nH]1")
"Not Active"
>>> measured("Cc1ccnc2c1NC(=O)c1cccnc1N2C1CC1")
"Not Active"

Req: Could you please provide reported IC50 for `Nc1nc(N)c2nc(-c3ccccc3)c(N)nc2n1` ? Thanks!
Resp: Not Active

Req: Could you please provide reported IC50 for `CC[C@@]1(O)C(=O)OCc2c1cc1n(c2=O)Cc2cc3c(CN(C)C)c(O)ccc3nc2-1` ? Thanks!
Resp: Not Active

----------
Target: C-C chemokine receptor type 5 (Homo sapiens); note: in other assays of this panel Not Active means under 50% inhibition at 10 µM
Type: cell membranes, HEK293, Membrane
Conditions: hek293
READOUT_NAME: IC50

A selection of reference data follows.
>>> measured("CC(N)Cc1c[nH]c2ccc(OCc3cccs3)cc12 (configuration not stated) [BW-723C86]")
"Not Active"
>>> measured("COC(=O)Nc1nc2ccc(Sc3ccccc3)cc2[nH]1 [FENBENDAZOLE]")
"Not Active"
>>> measured("CCN(CC)CCNC(=O)c1cc(Cl)c(N)cc1OC [METOCLOPRAMIDE]")
"Not Active"
>>> measured("CC1(COc2ccc(CC3SC(=O)NC3=O)cc2)CCCCC1 (configuration not stated) [CIGLITAZONE]")
"Not Active"
>>> measured("CC1(C)[C@H](C(=O)O)N2C(=O)C[C@H]2S1(=O)=O [SULBACTAM]")
"Not Active"

Req: Could you please provide reported IC50 for C#C[C@]1(O)CC[C@H]2[C@@H]3[C@H](C)CC4=C(CCC(=O)C4)[C@H]3CC[C@@]21C [TIBOLONE] ? Thanks!
Resp: Not Active

Req: Could you please provide reported IC50 for O=C(O)CNCP(=O)(O)O [GLYPHOSATE] ? Thanks!
Resp: Not Active

Req: Could you please provide reported IC50 for `Nc1ccc(Cc2ccc(N)cc2)cc1` ? Thanks!
Resp: Not Active

----------
Kindly state IC50 for each of the entries shown.
Target: Kappa-type opioid receptor (Homo sapiens)
Sequence (P41145 whole entry): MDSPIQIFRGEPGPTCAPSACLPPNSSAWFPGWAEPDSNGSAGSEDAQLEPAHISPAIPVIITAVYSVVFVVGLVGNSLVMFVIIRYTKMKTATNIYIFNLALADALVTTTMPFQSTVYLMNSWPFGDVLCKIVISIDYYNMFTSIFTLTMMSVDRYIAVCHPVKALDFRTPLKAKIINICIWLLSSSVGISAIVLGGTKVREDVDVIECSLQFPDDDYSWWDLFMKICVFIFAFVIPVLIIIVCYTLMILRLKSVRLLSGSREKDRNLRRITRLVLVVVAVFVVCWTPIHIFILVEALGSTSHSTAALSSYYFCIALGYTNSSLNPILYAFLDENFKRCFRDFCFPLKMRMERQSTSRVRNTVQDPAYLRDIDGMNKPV
Assay: DRUGMATRIX: Opiate kappa (OP2, KOP) radioligand binding (ligand: [3H] Diprenorphine)
Format: cell membranes, HEK293, Membrane
Details: Not Active = under 50% inhibition at 10 µM; read-out: IC50
Your answer is read as µM, so omit the unit and give the number.

Req: Could you please provide reported IC50 for `CC#C[C@]1(O)CC[C@H]2[C@@H]3CCC4=CC(=O)CCC4=C3[C@@H](c3ccc(N(C)C)cc3)C[C@@]21C` ? Thanks!
Resp: 20.1

Req: Could you please provide reported IC50 for c1ccc2sc(SSc3nc4ccccc4s3)nc2c1 [BENZOTHIAZYL DISULFIDE] ? Thanks!
Resp: 1.24

Req: Could you please provide reported IC50 for `Clc1cc(Cl)c(OCC#CI)cc1Cl` ? Thanks!
Resp: 1.15

Req: Could you please provide reported IC50 for `CCN(CC)C(=S)SSC(=S)N(CC)CC` ? Thanks!
Resp: 6.1

----------
Biological target: C-C chemokine receptor type 5 (Homo sapiens, UniProt P51681); note: in other assays of this panel Not Active means under 50% inhibition at 10 µM
Sequence (P51681 whole entry): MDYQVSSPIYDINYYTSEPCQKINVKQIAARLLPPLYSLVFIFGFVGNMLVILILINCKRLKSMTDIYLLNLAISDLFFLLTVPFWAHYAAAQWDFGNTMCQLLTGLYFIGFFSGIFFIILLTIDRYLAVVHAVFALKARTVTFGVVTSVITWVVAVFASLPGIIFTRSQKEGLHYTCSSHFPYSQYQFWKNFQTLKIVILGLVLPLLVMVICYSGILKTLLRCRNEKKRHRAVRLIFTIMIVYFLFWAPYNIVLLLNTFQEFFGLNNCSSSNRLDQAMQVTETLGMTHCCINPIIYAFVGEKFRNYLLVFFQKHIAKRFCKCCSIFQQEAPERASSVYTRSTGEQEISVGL
Type: cell membranes, HEK293, Membrane
Conditions: read-out: Ki
READOUT_NAME: pKi
// scale note: pKi = -log10(conc_M); give the bare number

Req: Could you please provide reported pKi for `CCN(CC)C(=S)SSC(=S)N(CC)CC` ? Thanks!
Resp: 4.74

----------
Target: Nitric oxide synthase, inducible (Mus musculus); note: in other assays of this panel Not Active means under 50% inhibition at 10 µM;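 note: inhibition of iNOS enzyme activity measured with L-arginine as substrate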
Sequence (P29477 whole entry): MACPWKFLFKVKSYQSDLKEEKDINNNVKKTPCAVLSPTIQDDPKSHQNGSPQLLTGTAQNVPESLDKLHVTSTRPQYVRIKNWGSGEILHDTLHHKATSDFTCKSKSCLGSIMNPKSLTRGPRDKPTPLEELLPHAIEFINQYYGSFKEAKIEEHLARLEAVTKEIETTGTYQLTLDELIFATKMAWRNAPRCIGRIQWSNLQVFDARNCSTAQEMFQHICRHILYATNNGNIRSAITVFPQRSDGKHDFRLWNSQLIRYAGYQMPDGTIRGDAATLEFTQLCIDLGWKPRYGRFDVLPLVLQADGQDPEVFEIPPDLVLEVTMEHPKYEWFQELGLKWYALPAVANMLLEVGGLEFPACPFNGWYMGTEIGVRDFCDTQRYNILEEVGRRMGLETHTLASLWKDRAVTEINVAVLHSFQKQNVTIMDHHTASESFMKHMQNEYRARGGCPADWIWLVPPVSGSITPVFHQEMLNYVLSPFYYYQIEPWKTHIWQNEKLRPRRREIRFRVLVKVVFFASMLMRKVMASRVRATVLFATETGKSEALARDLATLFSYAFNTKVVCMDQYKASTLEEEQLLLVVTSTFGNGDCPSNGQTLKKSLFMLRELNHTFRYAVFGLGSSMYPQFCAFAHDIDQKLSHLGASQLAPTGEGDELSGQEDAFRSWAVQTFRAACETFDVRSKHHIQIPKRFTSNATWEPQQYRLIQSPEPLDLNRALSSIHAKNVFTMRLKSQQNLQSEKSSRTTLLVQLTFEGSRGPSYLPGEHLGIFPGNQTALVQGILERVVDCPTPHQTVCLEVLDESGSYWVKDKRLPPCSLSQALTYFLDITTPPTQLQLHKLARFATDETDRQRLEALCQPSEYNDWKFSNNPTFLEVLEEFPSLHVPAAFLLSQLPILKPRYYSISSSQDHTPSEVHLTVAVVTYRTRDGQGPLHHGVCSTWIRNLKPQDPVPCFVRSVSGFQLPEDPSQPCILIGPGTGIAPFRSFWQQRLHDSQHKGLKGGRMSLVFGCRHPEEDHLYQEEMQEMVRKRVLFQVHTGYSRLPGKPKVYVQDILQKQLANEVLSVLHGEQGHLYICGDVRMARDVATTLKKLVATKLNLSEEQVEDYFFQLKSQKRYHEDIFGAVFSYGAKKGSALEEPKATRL
Set-up: species or system Escherichia coli
READOUT_NAME: IC50

A selection of reference data follows.
>>> measured("CC(Cl)(Cl)Cl")
"Not Active"
>>> measured("O=C(O)c1ccccc1")
"Not Active"
>>> measured("CC12CCC(CC1)C(C)(C)O2")
"Not Active"
>>> measured("CC(N)C12CC3CC(CC(C3)C1)C2 (stereo unspecified)")
"Not Active"
>>> measured("CCN(CCO)CCCC(C)Nc1ccnc2cc(Cl)ccc12 (stereo unspecified) [HYDROXYCHLOROQUINE]")
"Not Active"

Now examine the next entry.
Req: Could you please provide reported IC50 for `Cc1cnc(NC(=O)C2=C(O)c3ccccc3S(=O)(=O)N2C)s1` ? Thanks!
Resp: Not Active
